Test system: EKVX
Assay: NCI tumour cell line growth inhibition, 48 h
The source made the active and inactive calls. No stated cut-off is given here; in the data, active = GI50 up to about 1.1 µM and inactive = higher.
Parameter: GI50

Measured GI50 for this entry CCOC(=O)C1(Br)S(=O)(=O)OCCOS1(=O)=O on EKVX: > 100 µM (inactive)

Measured GI50 for this entry COC(=O)C12C3C=CC(O3)C1C1C=CC2O1 (configuration not stated) on EKVX: > 100 µM (inactive)

Measured GI50 for this entry O=c1c2ccccc2[nH]c(=S)n1-c1ccc(/N=N/c2cccc3c(O)cccc23)cc1 on EKVX: > 100 µM (inactive)

Measured GI50 for this entry Cc1ccccc1C(=O)c1cc(O)ccc1O on EKVX: > 100 µM (inactive)

Continuing:
Measured GI50 for this entry O=C(O)c1ccc2c(c1)Cc1cc([N+](=O)[O-])ccc1-2 on EKVX: > 100 µM (inactive)

Measured GI50 for this entry Cc1c(C)c2ccc(OC(C)C(=O)O)cc2oc1=O (configuration not stated) on EKVX: > 100 µM (inactive)

Measured GI50 for this entry O=c1[nH]cnc2c(C3OC(CO)C(O)C3O)c[nH]c12 (configuration not stated) on EKVX: > 100 µM (inactive)

The reported numbers originate from ChEMBL document CHEMBL1201862.
